Test system: VEEV TC-83
assay protocol: microbe, parasite or virus in culture
Assay type: cell-based
run parameters: Venezuelan equine encephalitis virus, Vero 76
observation type: inhibition at 20 µM (%)
Enter your answer as a number in %; do not include the unit.

*Q* Report inhibition at 20 µM, nothing else, for this molecule: O=c1nc(Nc2ccc(OCc3ccccc3)cc2)sc2ncccc12
*A* 63.2

*Q* Give reported inhibition at 20 µM value for CCN1CCN(Cc2nc3ccc([N+](=O)[O-])cc3c(=O)n2-c2ccccc2F)CC1
*A* 73

*Q* Determine from records and report inhibition at 20 µM for O=C(Cc1cccs1)Nc1nc2c(s1)CCCC2
*A* 27.8

*Q* Name the recorded inhibition at 20 µM of the item Clc1ccc2nnnc(-c3ccccc3)c2c1 in your answer.
*A* 42.1

*Q* Output inhibition at 20 µM of CCOC(=O)c1ccc(Nc2nc(=O)c3cccnc3s2)cc1
*A* 49

*Q* Item O=C(Oc1ccc2ccccc2c1Br)N1CCCCCC1 : provide inhibition at 20 µM
*A* 42.8

src = paper PMC4072787
